METHOD_NOTES: chemical genetic growth profiling, strain panel (AID 1159580);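 also: tested at 20 µM; growth read once vehicle control cultures reached saturation at 30 °C; 1 = growth at the plate median or of vehicle wells; lower values mean less growth of the strain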
MEASUREMENT_CONDITIONS: S. cerevisiae deletion strains, growth OD, locus YPR163C, strain tif3, stronger effect = lower value
In all, about 5,500 compounds went through this assay and about 2,000 (36%) were called active. About 18% were inconclusive and are not listed. The list shows a part of the results.
Give normalized growth for every item shown.
Give bare numbers.

For the 2 compounds below, give their normalized growth values.
1. COc1cc(S(C)=O)ccc1-c1nc2ncccc2[nH]1 (configuration not stated)
2. Cc1cc(O)c(C)c2c1C(=O)Oc1c(C)c(O)c(C(=O)O)c(C)c1O2

1. 0.982
2. 0.983

For the 5 compounds below, give their normalized growth values.
1. C[C@H](CCC(=O)O)[C@H]1CCC2C3C(CC[C@@]21C)[C@@]1(C)CC[C@@H](O)C[C@H]1C[C@@H]3O (some centres not stated)
2. COC(=O)CCC(C)[C@H]1CCC2C3C(C[C@H](O)[C@@]21C)[C@@]1(C)CC[C@@H](O)C[C@H]1C[C@H]3O (some centres not stated)
3. CC(CN(C)C)CN1c2ccccc2CCc2ccccc21 (configuration not stated)
4. CC[C@H](CCC(C)[C@H]1CCC2C3CCC4C[C@@H](O)CC[C@]4(C)C3CC[C@@]21C)C(C)C (some centres not stated)
5. CNC(=O)Oc1ccc2c(c1)[C@]1(C)CCN(C)[C@@H]1N2C

0.981
1.03
1.02
1.01
1.03

For the 8 compounds below, give their normalized growth values.
1. Cc1cc(O)c(C=O)c2c1C(=O)Oc1c(COC(=O)/C=C/C(=O)O)c(O)c(C(=O)O)c(C)c1O2
2. CC(CCC(=O)O)[C@H]1CCC2C3CC[C@@H]4CCCC[C@]4(C)C3CC[C@@]21C (some centres not stated)
3. CC(CCC(=O)O)[C@H]1CCC2C3CC[C@@H]4C[C@H](O)CC[C@]4(C)C3CC[C@@]21C (some centres not stated)
4. CC(C)CCCC(C)C1CCC2C3CC[C@H]4CCCC[C@]4(C)C3CC[C@]12C (some centres not stated)
5. CCC(=O)c1ccc2c(c1)N(CC(C)N(C)C)c1ccccc1S2 (configuration not stated)
6. CNCCCN1c2ccccc2CCc2ccccc21
7. CCC(=O)Nc1ccc(Cl)c(Cl)c1
8. Nc1ccn(C2O[C@H](CO)[C@@H](O)[C@H]2O)c(=O)n1 (some centres not stated)

0.987
1.01
0.968
1
1
0.989
0.997
1.01

For the 2 compounds below, give their normalized growth values.
1. CC(CCC(=O)O)[C@H]1CCC2C3C(C[C@H](O)[C@@]21C)[C@@]1(C)CC[C@@H](O)C[C@H]1C[C@H]3O (some centres not stated)
2. CC(CCC(=O)O)[C@H]1CCC2C3C[C@H](O)[C@@H]4C[C@H](O)CC[C@]4(C)C3CC[C@@]21C (some centres not stated)

0.992
1.03
